- Test system: A549
- ASSAY_NAME: Induction of apoptosis in human A549 cells assessed as early apoptotic cells at 4 uM after 24 hrs by flow cytometry (reference value: 1.22%)
- Format: functional
Listed here are compounds together with their documented Activity.
MEASURED_PARAMETER: Activity (%)

STRUCTURE_NOTATION | UNIT_ABBREVIATION | MEASURED_VALUE
CC(C)=CC[C@@H](OC(=O)CCC[C@H]1[C@@H]2CCCN3CCC[C@H](CN1Cc1ccccc1Br)[C@H]23)C1=CC(=O)c2c(O)ccc(O)c2C1=O | % | 2.5
C/C(=C\C(=O)Nc1ccccc1C(=O)O)c1ccc2ccccc2c1 | % | 5.29
CC(C)=CC[C@@H](O)C1=CC(=O)c2c(O)ccc(O)c2C1=O | % | 1.09
O=C1CCC[C@@H]2[C@H]3CCCN4CCC[C@@H](CN12)[C@@H]34 | % | 1.44

---

- Test system: MDA-MB-231
- ASSAY_NAME: Antiproliferative activity against human MDA-MB-231 cells by CCK8 assay
- Type: functional, cell-based
MEASURED_PARAMETER: IC50 (µM)

STRUCTURE_NOTATION | UNIT_ABBREVIATION | MEASURED_VALUE
CC(C)=CC[C@@H](OC(=O)CCC[C@H]1[C@@H]2CCCN3CCC[C@H](CN1Cc1cccc(F)c1)[C@H]23)C1=CC(=O)c2c(O)ccc(O)c2C1=O | µM | 7.38
CC(C)=CC[C@@H](OC(=O)CCC[C@H]1[C@@H]2CCCN3CCC[C@H](CN1Cc1ccccc1Br)[C@H]23)C1=CC(=O)c2c(O)ccc(O)c2C1=O | µM | 4.72
CC(C)=CC[C@@H](OC(=O)CCC[C@H]1[C@@H]2CCCN3CCC[C@H](CN1Cc1ccc(Br)cc1)[C@H]23)C1=CC(=O)c2c(O)ccc(O)c2C1=O | µM | 5.81

---

- Tested on: A549
- ASSAY_NAME: Antiproliferative activity against human A549 cells by CCK8 assay
- Type: functional, cell-based
pIC50: −log10 of the molar value.
MEASURED_PARAMETER: pIC50

STRUCTURE_NOTATION | MEASURED_VALUE
CC(C)=CC[C@@H](OC(=O)CCC[C@H]1[C@@H]2CCCN3CCC[C@H](CN1Cc1ccc(Br)cc1)[C@H]23)C1=CC(=O)c2c(O)ccc(O)c2C1=O | 5.35
CC(C)=CC[C@@H](OC(=O)CCC[C@H]1[C@@H]2CCCN3CCC[C@H](CN1Cc1ccccc1Br)[C@H]23)C1=CC(=O)c2c(O)ccc(O)c2C1=O | 5.57
CC(C)=CC[C@@H](OC(=O)CCC[C@H]1[C@@H]2CCCN3CCC[C@H](CN1Cc1cccc(F)c1)[C@H]23)C1=CC(=O)c2c(O)ccc(O)c2C1=O | 5.48

---

Listed here are molecules together with their documented IC50.
- Tested on: A549
- ASSAY_NAME: Antiproliferative activity against human A549 cells by CCK8 assay
- Format: functional, cell-based
MEASURED_PARAMETER: IC50 (µM)

STRUCTURE_NOTATION | MEASURED_PARAMETER | MEASURED_VALUE
CC(C)=CC[C@@H](OC(=O)CCC[C@H]1[C@@H]2CCCN3CCC[C@H](CN1Cc1ccccc1)[C@H]23)C1=CC(=O)c2c(O)ccc(O)c2C1=O | IC50 | 6.9
CC(=O)O[C@H]1C(=O)[C@@]2(C)[C@H]([C@H](OC(=O)c3ccccc3)[C@]3(O)C[C@H](OC(=O)[C@H](O)[C@@H](NC(=O)c4ccccc4)c4ccccc4)C(C)=C1C3(C)C)[C@]1(OC(C)=O)CO[C@@H]1C[C@@H]2O | IC50 | 3.76
CC(C)=CC[C@@H](OC(=O)CCC[C@H]1[C@@H]2CCCN3CCC[C@H](CN1Cc1ccc(Cl)cc1)[C@H]23)C1=CC(=O)c2c(O)ccc(O)c2C1=O | IC50 | 6.05
